- System Tested: hSCN3A sodium channels (Homo sapiens)
- Construct: expressed in transfected cells
- Run Description: hSCN3A electrophysiology, Ionworks Quattro automated platform (Table C)
- Format: cell-based
- Details: 3 μM compound, read-out: SCN3A % INHIB HTS IWQ 3 μM
Attribute Measured: inhibition at 3 µM (%)
Numbers only, in %.

Worked cases, inhibition at 3 µM given:
O=C(c1ccccc1)C1CCCN(C(=O)c2ccc(S(=O)(=O)Nc3nccs3)cc2)C1 (centres unmarked)
5.99
COc1ccc(C2(NC(=O)c3ccc(S(=O)(=O)Nc4nccs4)cc3)CC2)cc1
15.6
O=C(NCCOc1ccccc1F)c1ccc(S(=O)(=O)Nc2nccs2)cc1
30.8
O=C(c1ccc(S(=O)(=O)Nc2nccs2)cc1)N1CCC(COCC2CC2)C1 (centres unmarked)
0.37
CC(Cc1ccc(F)cc1)NC(=O)c1ccc(S(=O)(=O)Nc2nccs2)cc1 (centres unmarked)
12.5

Working through the 3 compounds below one at a time, give inhibition at 3 µM for each.
1. O=C(c1ccc(S(=O)(=O)Nc2nccs2)cc1)N1CCCC(COc2cc(F)cc(F)c2)C1 (centres unmarked)
2. Cc1ccc(C)c(C2CCCN2C(=O)c2ccc(S(=O)(=O)Nc3nccs3)cc2)c1 (centres unmarked)
3. O=C(c1ccc(S(=O)(=O)Nc2nccs2)cc1)N1CCOCC(Cc2ccccc2)C1 (centres unmarked)

Response:
1. 35.8
2. 15.8
3. 5.51

Working through the 4 compounds below one at a time, give inhibition at 3 µM for each.
1. CC(c1ccccc1)N(CCO)C(=O)c1ccc(S(=O)(=O)Nc2nccs2)cc1 (centres unmarked)
2. O=C(c1ccc(S(=O)(=O)Nc2nccs2)cc1)N1CCCCC1COc1ccccc1 (centres unmarked)
3. O=C(NCc1cc(C(F)(F)F)ccc1F)c1ccc(S(=O)(=O)Nc2nccs2)cc1
4. O=C(NCCOc1ccccc1)c1ccc(S(=O)(=O)Nc2nccs2)cc1

Response:
[12.5, 3.47, 35.8, 31.4]

Working through the 2 compounds below one at a time, give inhibition at 3 µM for each.
1. O=C(NCc1c(F)cccc1C(F)(F)F)c1ccc(S(=O)(=O)Nc2nccs2)cc1
2. COc1cccc(CCNC(=O)c2ccc(S(=O)(=O)Nc3nccs3)cc2)c1

Response:
1. 17.7
2. 30.6

Working through the 3 compounds below one at a time, give inhibition at 3 µM for each.
1. O=C(c1ccc(S(=O)(=O)Nc2nccs2)cc1)N1CCOC(CN2Cc3ccccc3C2=O)C1 (centres unmarked)
2. CC(C)N(Cc1ccccc1)C(=O)c1ccc(S(=O)(=O)Nc2nccs2)cc1
3. O=C(c1ccc(S(=O)(=O)Nc2nccs2)cc1)N1CCCC[C@@H]1c1ccccn1

Response:
1: 4.03; 2: 5.69; 3: 6.02

====

- System Tested: hSCN3A sodium channels (Homo sapiens, UniProt Q9NY46)
- Construct: expressed in transfected cells
- Sequence (Q9NY46 whole entry): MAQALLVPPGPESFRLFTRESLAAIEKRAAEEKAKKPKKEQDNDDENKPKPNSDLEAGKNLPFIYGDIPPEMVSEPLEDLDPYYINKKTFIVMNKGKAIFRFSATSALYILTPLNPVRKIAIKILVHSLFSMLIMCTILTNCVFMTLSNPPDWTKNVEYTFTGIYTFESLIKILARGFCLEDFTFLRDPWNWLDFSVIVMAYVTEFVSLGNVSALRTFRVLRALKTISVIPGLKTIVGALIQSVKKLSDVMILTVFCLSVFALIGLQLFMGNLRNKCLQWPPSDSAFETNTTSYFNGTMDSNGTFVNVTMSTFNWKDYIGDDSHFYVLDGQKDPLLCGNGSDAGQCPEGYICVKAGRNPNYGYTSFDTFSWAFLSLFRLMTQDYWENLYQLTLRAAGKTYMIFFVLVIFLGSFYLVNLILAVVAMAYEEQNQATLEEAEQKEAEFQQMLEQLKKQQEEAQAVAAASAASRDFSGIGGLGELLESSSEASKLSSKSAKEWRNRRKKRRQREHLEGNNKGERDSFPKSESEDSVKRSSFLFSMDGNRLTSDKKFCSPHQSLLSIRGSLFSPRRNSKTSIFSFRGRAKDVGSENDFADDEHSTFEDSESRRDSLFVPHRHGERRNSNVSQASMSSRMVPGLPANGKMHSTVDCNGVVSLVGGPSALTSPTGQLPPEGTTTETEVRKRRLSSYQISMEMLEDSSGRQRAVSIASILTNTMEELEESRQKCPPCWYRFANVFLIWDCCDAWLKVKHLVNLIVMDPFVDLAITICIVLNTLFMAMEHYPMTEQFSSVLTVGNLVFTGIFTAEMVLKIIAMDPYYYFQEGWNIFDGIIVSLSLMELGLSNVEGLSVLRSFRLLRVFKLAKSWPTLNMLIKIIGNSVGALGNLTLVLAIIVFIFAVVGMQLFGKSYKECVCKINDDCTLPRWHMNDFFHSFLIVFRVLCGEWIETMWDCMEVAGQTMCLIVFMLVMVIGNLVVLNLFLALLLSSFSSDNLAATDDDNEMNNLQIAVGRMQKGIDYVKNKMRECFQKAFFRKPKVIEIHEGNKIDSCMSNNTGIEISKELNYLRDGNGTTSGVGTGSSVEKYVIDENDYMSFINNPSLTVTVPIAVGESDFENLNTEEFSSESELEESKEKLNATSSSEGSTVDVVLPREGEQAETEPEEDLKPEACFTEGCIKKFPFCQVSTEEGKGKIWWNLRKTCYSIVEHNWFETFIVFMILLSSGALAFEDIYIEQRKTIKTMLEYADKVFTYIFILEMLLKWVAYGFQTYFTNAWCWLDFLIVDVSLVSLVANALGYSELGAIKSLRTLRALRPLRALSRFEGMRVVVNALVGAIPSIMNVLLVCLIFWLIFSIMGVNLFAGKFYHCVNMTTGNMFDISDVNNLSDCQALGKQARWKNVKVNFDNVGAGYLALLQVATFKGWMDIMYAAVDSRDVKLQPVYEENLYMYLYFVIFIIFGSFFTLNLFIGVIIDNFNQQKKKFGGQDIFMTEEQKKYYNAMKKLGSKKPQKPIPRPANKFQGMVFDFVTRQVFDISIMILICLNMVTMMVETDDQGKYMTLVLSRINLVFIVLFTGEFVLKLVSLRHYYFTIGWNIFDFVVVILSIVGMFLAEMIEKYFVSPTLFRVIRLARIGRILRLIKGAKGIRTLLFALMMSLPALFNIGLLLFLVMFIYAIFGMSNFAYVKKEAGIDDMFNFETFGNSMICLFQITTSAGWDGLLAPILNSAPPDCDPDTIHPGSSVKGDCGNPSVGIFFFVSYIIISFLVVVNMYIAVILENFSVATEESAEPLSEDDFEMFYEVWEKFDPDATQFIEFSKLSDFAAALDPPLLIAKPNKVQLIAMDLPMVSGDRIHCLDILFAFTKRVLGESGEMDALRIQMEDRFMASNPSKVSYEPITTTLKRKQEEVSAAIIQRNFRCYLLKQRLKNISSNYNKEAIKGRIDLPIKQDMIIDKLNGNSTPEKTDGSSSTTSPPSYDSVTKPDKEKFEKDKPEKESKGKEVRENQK
- Run Description: hSCN3A electrophysiology, Ionworks Quattro automated platform (Table C)
- Assay type: cell-based
- Details: 3 μM compound, read-out: SCN3A % INHIB HTS IWQ 3 μM
Attribute Measured: inhibition at 3 µM (%)
One number for each entry, in %.

Worked cases, inhibition at 3 µM given:
COc1ccc(CC2CCCN2C(=O)c2ccc(S(=O)(=O)Nc3nccs3)cc2)cc1 (stereo not drawn) [Example 206]
4.17
O=C(NC(c1c(F)cccc1F)C1CC1)c1ccc(S(=O)(=O)Nc2nccs2)cc1 (stereo not drawn) [Example 140]
2.34
CN(CCC(O)c1ccccc1)C(=O)c1ccc(S(=O)(=O)Nc2nccs2)cc1 (stereo not drawn) [Example 235]
21.4

Working through the 4 molecules below one at a time, give inhibition at 3 µM for each.
1. O=C(c1ccc(S(=O)(=O)Nc2nccs2)cc1)N1CCCC1c1ccccc1 (stereo not drawn) [Example 205]
2. O=C(c1ccc(S(=O)(=O)Nc2nccs2)cc1)N(Cc1ccccc1)[C@@H]1CCCC[C@H]1O [Example 213]
3. COc1cccc(C2CCCCCN2C(=O)c2ccc(S(=O)(=O)Nc3nccs3)cc2)c1 (stereo not drawn) [Example 275]
4. O=C(c1ccc(S(=O)(=O)Nc2nccs2)cc1)N1CCC(CCc2ccccc2)C1 (stereo not drawn) [Example 227]

Response:
1. 11.3
2. -0.67
3. 9.93
4. 29.3

Working through the 7 molecules below one at a time, give inhibition at 3 µM for each.
1. O=C(c1ccc(S(=O)(=O)Nc2nccs2)cc1)N1CCCC1c1ccccc1Cl (stereo not drawn) [Example 215]
2. CC(C)(NC(=O)c1ccc(S(=O)(=O)Nc2nccs2)cc1)c1cccc(Cl)c1 [Example 127]
3. CN(CC1Cc2ccccc2O1)C(=O)c1ccc(S(=O)(=O)Nc2nccs2)cc1 (stereo not drawn) [Example 274]
4. Cc1ccnc(CC2CCCN2C(=O)c2ccc(S(=O)(=O)Nc3nccs3)cc2)c1 (stereo not drawn) [Example 248]
5. O=C(N[C@@H]1CCC[C@@H]1c1cc(F)cc(F)c1)c1ccc(S(=O)(=O)Nc2nccs2)cc1 [Example 128]
6. O=C(c1ccc(S(=O)(=O)Nc2nccs2)cc1)N1CCCC1Cc1ccccc1F (stereo not drawn) [Example 233]
7. O=C(c1ccc(S(=O)(=O)Nc2nccs2)cc1)N1CCCC1c1ccccc1F (stereo not drawn) [Example 281]

Response:
1: 30.5; 2: 28.9; 3: 14.6; 4: 20.1; 5: 11.7; 6: 18.5; 7: 10.2
